# Experimental System: Matrix metalloproteinase-9 (Homo sapiens)
# Sequence (P14780 whole entry): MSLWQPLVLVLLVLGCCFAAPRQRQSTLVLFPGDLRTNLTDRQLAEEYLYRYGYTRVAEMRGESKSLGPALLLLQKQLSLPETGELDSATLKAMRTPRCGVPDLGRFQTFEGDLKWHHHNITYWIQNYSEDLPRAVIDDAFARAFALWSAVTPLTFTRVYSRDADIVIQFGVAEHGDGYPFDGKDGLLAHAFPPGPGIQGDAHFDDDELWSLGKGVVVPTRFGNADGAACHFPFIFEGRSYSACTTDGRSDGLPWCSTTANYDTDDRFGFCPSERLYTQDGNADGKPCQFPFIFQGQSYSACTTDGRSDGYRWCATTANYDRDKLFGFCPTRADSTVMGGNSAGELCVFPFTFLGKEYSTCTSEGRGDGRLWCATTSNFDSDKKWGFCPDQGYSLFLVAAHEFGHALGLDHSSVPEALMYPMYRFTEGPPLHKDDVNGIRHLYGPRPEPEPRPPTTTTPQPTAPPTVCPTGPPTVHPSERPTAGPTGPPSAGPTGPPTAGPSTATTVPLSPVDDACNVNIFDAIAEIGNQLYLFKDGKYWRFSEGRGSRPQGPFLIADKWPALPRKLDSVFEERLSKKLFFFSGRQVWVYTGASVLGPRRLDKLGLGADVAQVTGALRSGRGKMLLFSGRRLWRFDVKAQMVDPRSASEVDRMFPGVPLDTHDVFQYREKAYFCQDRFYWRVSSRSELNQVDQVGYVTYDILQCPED
Measured Endpoint: Ki

Incoming: For "NC(=O)CC[C@H](NC(=O)CCc1ccc(-c2cc(-c3ccccc3)cs2)cc1)C(=O)N[C@@H](CCC(=O)O)C(N)=O" , what is its reported Ki?
Outgoing: > 5 µM

###

# Experimental System: 72 kDa type IV collagenase (Homo sapiens)
# Sequence (P08253 whole entry): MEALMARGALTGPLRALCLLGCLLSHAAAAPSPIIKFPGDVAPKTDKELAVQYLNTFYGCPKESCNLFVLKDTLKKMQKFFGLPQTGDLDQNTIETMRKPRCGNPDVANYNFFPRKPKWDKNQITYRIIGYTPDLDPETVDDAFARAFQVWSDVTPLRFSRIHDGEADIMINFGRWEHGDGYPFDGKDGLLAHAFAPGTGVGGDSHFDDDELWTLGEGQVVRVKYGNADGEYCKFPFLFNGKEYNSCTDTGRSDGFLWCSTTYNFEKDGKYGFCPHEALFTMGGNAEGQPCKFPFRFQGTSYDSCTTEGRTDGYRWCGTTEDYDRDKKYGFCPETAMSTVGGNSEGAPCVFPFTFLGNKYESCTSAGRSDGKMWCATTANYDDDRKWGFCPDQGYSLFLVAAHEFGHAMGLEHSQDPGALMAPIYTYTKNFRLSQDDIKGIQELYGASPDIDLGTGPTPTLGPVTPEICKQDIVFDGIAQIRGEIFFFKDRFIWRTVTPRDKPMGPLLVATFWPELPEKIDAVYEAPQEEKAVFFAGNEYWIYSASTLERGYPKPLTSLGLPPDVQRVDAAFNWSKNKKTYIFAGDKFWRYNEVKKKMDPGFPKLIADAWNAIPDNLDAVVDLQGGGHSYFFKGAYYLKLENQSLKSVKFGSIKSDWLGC
pKi: −log10 of the molar value.
Measured Endpoint: pKi

Incoming: Notebook entry, 72 kDa type IV collagenase (Homo sapiens) assay: pKi of "NC(=O)CC[C@H](NC(=O)CCc1ccc(-c2cc(-c3ccccc3)cs2)cc1)C(=O)N[C@@H](CCC(=O)O)C(N)=O" = ?
Outgoing: < 5.30

Each recorded value in this set is attributed to ChEMBL document CHEMBL3638630.
